This collection of values is drawn from paper PMC8745330.

biological target: hCA II (Homo sapiens, UniProt P00918)
EXPERIMENTAL READOUT: Ki
Please answer in the form of a number followed by its unit of measurement.

Use these answered entries as a reference point.
NS(=O)(=O)c1ccc(OCc2cn(CCCS(=O)(=O)[O-])nn2)cc1.[Na+] :: 0.9 nM
CC(=O)Nc1cc(S(N)(=O)=O)ccc1OCc1cn(CCCS(=O)(=O)[O-])nn1.[Na+] :: 63.4 nM
CCC(=O)Nc1cc(S(N)(=O)=O)ccc1OCc1cn(CCCCS(=O)(=O)O)nn1 :: 39.9 nM
NS(=O)(=O)c1ccc(C(=O)NCc2cn(CCCS(=O)(=O)[O-])nn2)cc1.[Na+] :: 4.3 nM
NS(=O)(=O)c1ccc(CNC(=O)NCc2cn(CCCS(=O)(=O)[O-])nn2)cc1.[Na+] :: 139 nM
NS(=O)(=O)c1ccc(-c2cn(CCCS(=O)(=O)[O-])nn2)cc1.[Na+] :: 3.2 nM

Attention now turns to another entry.
**Q:** Would you kindly share the measured Ki for "CCC(=O)Nc1cc(S(N)(=O)=O)ccc1OCc1cn(CCCS(=O)(=O)[O-])nn1.[Na+]" ?
**A:** 6.6 nM
